Molecular target: recombinant human G9a protein (Homo sapiens)
Construct: purchased BPS Bioscience Inc. #51001
Sequence (Q96KQ7 785-1210 limits assumed): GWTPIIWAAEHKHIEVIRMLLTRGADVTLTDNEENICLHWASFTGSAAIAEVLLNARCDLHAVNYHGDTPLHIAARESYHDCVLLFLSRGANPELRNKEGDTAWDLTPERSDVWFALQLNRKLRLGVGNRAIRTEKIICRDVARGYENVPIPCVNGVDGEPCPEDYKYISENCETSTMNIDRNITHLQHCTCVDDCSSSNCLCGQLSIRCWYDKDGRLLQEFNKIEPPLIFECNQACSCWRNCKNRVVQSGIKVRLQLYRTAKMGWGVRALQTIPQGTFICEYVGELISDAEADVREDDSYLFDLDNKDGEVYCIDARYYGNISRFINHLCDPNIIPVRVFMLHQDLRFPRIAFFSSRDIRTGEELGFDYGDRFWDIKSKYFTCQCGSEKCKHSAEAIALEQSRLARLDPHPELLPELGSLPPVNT
Assay: G9a inhibitory activity test (ALPHA)
Type: biochemical
Conditions: read-out: Inhibitory activity (G9a IC50)
Give measured IC50 for each item. Keep answers brief.

Observed IC50 on recombinant human G9a protein (Homo sapiens), entry CCCCC(NC(=O)c1[nH]c2c(c1C)C(=O)CC(C)(C)C2)C(=O)Nc1ccc(OC2CCNCC2)nc1 (stereo not shown) , equals < 50 nM

The measured IC50 that CCCCC(NC(=O)c1[nH]c2c(c1C)C(=O)CC(C)(C)C2)C(=O)NC1CCC(N(C)C)CC1 (stereo not shown) showed for recombinant human G9a protein (Homo sapiens) is ≥ 200 nM

Entry CCCCC(NC(=O)c1ccc(N2CCN(C)CC2)cc1Cl)C(=O)Nc1ccc(OC2CCN(C)CC2)nc1 (stereo not shown) , recombinant human G9a protein (Homo sapiens) data, IC50 value: ≥ 200 nM

Summary line: CCCC[C@@H](NC(=O)c1[nH]c2c(c1C)C(=O)CC(C)(C)C2)C(=O)N[C@@H](C)c1ccccc1 , recombinant human G9a protein (Homo sapiens), reported IC50 = ≥ 200 nM

Case CCCC[C@H](NC(=O)c1[nH]c2c(c1C)C(=O)CC(C)(C)C2)C(=O)N1CCc2c(OCCN(C)C)cccc21 , recombinant human G9a protein (Homo sapiens), IC50 recorded as ≥ 200 nM

Entry Cc1c(C(=O)NC(CCC2CC2)C(=O)Nc2ccc(F)nc2)[nH]c2c1C(=O)CC(C)(C)C2 (stereo not shown) : IC50 on recombinant human G9a protein (Homo sapiens) = 50 to 200 nM

Entry Cc1cccc2c1CCN2C(=O)C(CCC1CC1)NC(=O)c1[nH]c2c(c1C)C(=O)CC(C)(C)C2 (stereo not shown) , tested on recombinant human G9a protein (Homo sapiens), has a reported IC50 of ≥ 200 nM
